tested on: weeds; experiment: Glasshouse weed control, HST inhibitors alone and with A22, pre-emergence; assay type: in vivo; settings: Echinochloa crus-galli, 336 h, ECHCG, 14 DAT, HST inhibitor rate 250 g/ha, read-out: ECHCG Obs, % control score
So basically: pest or weed control at 250 g/ha at 10% or higher? That is true. Lower than 10%? That is false.

1. O=c1c(-c2cc(C(F)(F)F)ccc2Cl)c(O)c2nccnc2n1CC(F)F [Compound 2.9]    true
2. O=c1c(-c2cc(Cl)ccc2C(F)(F)F)c(O)c2nccnc2n1CC(F)F [Compound 2.19]    true
3. CC1=NN(C)C(=O)C(c2c(C)cc(C)cc2C)C1=O (centres unmarked) [Compound 6.1]    true
4. O=S1(=O)C(c2ccc(Br)cc2C(F)(F)F)=C(O)c2nccnc2N1CC(F)F [Compound 3.5]    false
5. Cn1c(=O)c(-c2c(Cl)cccc2C(F)(F)F)c(O)c2nccnc21 [Compound 2.16]    true
6. O=c1c(-c2c(Cl)ccc(Cl)c2Cl)c(O)c2nccnc2n1CC(F)F [Compound 2.14]    true
7. O=c1c(-c2c(F)ccc(Br)c2Cl)c(O)c2cccnc2n1CC(F)F [Compound 2.15]    false
8. O=c1c(-c2c(Cl)cccc2C(F)(F)F)c(O)c2nccnc2n1CC(F)F [Compound 2.20]    true
9. O=c1c(-c2c(F)ccc(Cl)c2Cl)c(O)c2nccnc2n1CC(F)F [Compound 2.21]    false
10. O=c1c(-c2c(F)ccc(Br)c2Cl)c(O)c2nccnc2n1CC(F)F [Compound 2.8]    true
